Test system: morningglory
assay-comment: Test A pre-/postemergence herbicide test
Format: in vivo, Ipomoea spp.
measurement-parameters: Preemergence, 2000 g ai/ha; visual rating, 0 to 100 scale (0 no effect, 100 complete control)
Catalogue of Morningglory plant response rating values
I'd appreciate a reply containing only the number, no unit.

Worked cases, answers included:
CCn1nc(C(C)(C)C)cc1C(=O)Nc1cccc(C#N)c1 [Compound 139] ... 85
CC(=O)c1cccc(NC(=O)c2cn(C(C)C)nc2C)c1 [Compound 179] ... 5

Would you mind telling me what Morningglory plant response rating value was observed for COC(=O)c1cccc(NC(=O)c2cc(C(C)(C)C)nn2C)n1 [Compound 312] ? 0

Could you do the same for CCc1nc(C(C)(C)C)sc1C(=O)Nc1cccc(C(=O)NCC2CC2)n1 [Compound 215] , please? 55

Next entry: C#CCNC(=O)c1cccc(NC(=O)c2cc(C(C)(C)C)nn2C)n1 [Compound 316] 0
